Data provenance is patent US20210332142A1.

- TARGET_OR_TEST_SYSTEM: T1, recombinant cyno Tie2 extracellular domain (cynomolgus monkey, UniProt Q02763 23-748 (human entry))
- T1 construct: also called Recombinant cyno Tie2 ECD; cy Tie2
- T1 chain: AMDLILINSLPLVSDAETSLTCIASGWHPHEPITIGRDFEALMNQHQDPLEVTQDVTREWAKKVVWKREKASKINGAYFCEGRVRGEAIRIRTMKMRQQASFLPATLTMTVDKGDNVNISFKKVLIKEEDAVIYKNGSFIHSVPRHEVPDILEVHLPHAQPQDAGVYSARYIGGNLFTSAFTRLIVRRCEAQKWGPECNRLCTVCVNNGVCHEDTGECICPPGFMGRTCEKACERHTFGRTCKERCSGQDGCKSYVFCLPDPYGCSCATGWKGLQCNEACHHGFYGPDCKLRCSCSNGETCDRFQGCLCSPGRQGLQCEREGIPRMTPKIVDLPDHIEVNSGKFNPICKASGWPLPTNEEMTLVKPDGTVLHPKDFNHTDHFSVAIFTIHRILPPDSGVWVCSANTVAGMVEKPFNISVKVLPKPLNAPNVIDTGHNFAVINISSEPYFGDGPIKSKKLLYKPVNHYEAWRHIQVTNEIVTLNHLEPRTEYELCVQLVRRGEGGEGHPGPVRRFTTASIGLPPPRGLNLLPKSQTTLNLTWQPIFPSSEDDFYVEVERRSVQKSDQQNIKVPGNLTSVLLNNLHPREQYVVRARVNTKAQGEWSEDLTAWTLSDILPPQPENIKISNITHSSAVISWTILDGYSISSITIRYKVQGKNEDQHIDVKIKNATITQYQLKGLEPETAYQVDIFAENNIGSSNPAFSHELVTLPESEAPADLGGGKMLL
- TEST_NAME: SPR, IgG captured, 37C
- Experimental: A human antibody capture chip was prepared using a Series S CM5 chip (GE Life Sciences), a human antibody capture kit (GE Life Sciences) and an amine coupling kit (GE Life Sciences). […] Binding to 300 nM and 1500 nM recombinant Tie2 was analyzed at 37° C. using a Single Cycle Kinetics method with a contact time of 60 seconds, a dissociation time of 120 seconds and a flow rate of 50 μl/min. […]
List of Normalized Binding Signal, 1500 nM values.

BINDER: Tie2.1.M100cY (antibody, IgG1, name in Kabat numbering, V domains shown, hIgG1) VH: EVQLVESGGGLVQPGGSLRLSCAASGFTFSNTDISWVRQAPGKGLEWVGRISPSDGNTYYADSVKGRFTISADTSKNTAYLQMNSLRAEDTAVYYCARRTRWASWAYDYWGQGTLVTVSS VL: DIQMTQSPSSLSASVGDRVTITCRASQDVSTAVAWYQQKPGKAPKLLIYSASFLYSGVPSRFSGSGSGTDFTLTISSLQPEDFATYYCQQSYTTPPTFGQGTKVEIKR
Normalized Binding Signal, 1500 nM: 0.45

BINDER: Tie2.1.M100cG (antibody, IgG1, name in Kabat numbering, V domains shown, hIgG1) VH: EVQLVESGGGLVQPGGSLRLSCAASGFTFSNTDISWVRQAPGKGLEWVGRISPSDGNTYYADSVKGRFTISADTSKNTAYLQMNSLRAEDTAVYYCARRTRWASWAGDYWGQGTLVTVSS VL: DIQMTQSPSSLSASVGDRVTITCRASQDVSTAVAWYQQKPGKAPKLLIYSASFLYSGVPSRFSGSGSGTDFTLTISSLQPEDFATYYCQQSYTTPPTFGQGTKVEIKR
Normalized Binding Signal, 1500 nM: 0.2

BINDER: Tie2.1.M100cK (antibody, IgG1, name in Kabat numbering, V domains shown, hIgG1) VH: EVQLVESGGGLVQPGGSLRLSCAASGFTFSNTDISWVRQAPGKGLEWVGRISPSDGNTYYADSVKGRFTISADTSKNTAYLQMNSLRAEDTAVYYCARRTRWASWAKDYWGQGTLVTVSS VL: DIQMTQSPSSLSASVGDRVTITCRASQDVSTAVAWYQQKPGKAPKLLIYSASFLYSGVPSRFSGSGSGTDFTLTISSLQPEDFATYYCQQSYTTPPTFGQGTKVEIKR
Normalized Binding Signal, 1500 nM: 0.39
